system: 485368-065-R3-J5-PDC spheroids with HUVEC/MSC, viability; test: Anticancer human tumor 485368-065-R3-J5-PDC patient-derived pancreatic carcinoma cell line growth inhibition [RAS]; conditions: second compound 0.000949 µM; first compound 0.01 µM; stronger effect = lower value;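 also: spheroids exposed to agents for seven days before readout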
viability, T/C strictly less than 70% = Fulfilled. Otherwise Not fulfilled.

>>> labelvalue("C=CC(=O)N1CCN(c2nc(OCC3CCCN3C)nc3c(F)c(-c4nc(N)cc(C)c4C(F)(F)F)c(Cl)cc23)C(C)C1 (stereo unspecified) + CCn1c(-c2cccnc2C(C)OC)c2c3cc(ccc31)N1CCOC(CC(NC(=O)C(C(C)C)N(C)C(=O)C3(F)CCN(C(=O)C#CC(C)(C)N(C)C)CC3)C(=O)N3CCCC(N3)C(=O)OCC(C)(C)C2)C1")
"Not fulfilled"
>>> labelvalue("Nc1ccn(C2OC(CO)C(O)C2(F)F)c(=O)n1 (stereo unspecified) + CCn1c(-c2cc(N3CCN(C)CC3)cnc2C(C)OC)c2c3cc(ccc31)-c1csc(n1)CC(NC(=O)C1CC1C)C(=O)N1CCCC(N1)C(=O)OCC(C)(C)C2")
"Fulfilled"
>>> labelvalue("Nc1ccn(C2OC(CO)C(O)C2(F)F)c(=O)n1 (stereo unspecified) + CCn1c(-c2cccnc2C(C)OC)c2c3cc(ccc31)N1CCOC(CC(NC(=O)C(C(C)C)N(C)C(=O)C3(F)CCN(C(=O)C#CC(C)(C)N(C)C)CC3)C(=O)N3CCCC(N3)C(=O)OCC(C)(C)C2)C1")
"Fulfilled"

Inquiry: Criterion: viability, T/C strictly below 70%. Is it met by CC(C)n1nc(-c2ccc3oc(N)nc3c2)c2c(N)ncnc21 + CCn1c(-c2cccnc2C(C)OC)c2c3cc(ccc31)N1CCOC(CC(NC(=O)C(C(C)C)N(C)C(=O)C3(F)CCN(C(=O)C#CC(C)(C)N(C)C)CC3)C(=O)N3CCCC(N3)C(=O)OCC(C)(C)C2)C1 ?
Reply text: Not fulfilled

Inquiry: Criterion: viability, T/C strictly below 70%. Is it met by CC(C)n1nc(-c2ccc3oc(N)nc3c2)c2c(N)ncnc21 + CCn1c(-c2cc(N3CCN(C)CC3)cnc2C(C)OC)c2c3cc(ccc31)-c1csc(n1)CC(NC(=O)C1CC1C)C(=O)N1CCCC(N1)C(=O)OCC(C)(C)C2 ?
Reply text: Fulfilled

Inquiry: Criterion: viability, T/C strictly below 70%. Is it met by C=CC(=O)Nc1cc(Nc2nccc(-c3cn(C)c4ccccc34)n2)c(OC)cc1N(C)CCN(C)C + CCn1c(-c2cccnc2C(C)OC)c2c3cc(ccc31)N1CCOC(CC(NC(=O)C(C(C)C)N(C)C(=O)C3(F)CCN(C(=O)C#CC(C)(C)N(C)C)CC3)C(=O)N3CCCC(N3)C(=O)OCC(C)(C)C2)C1 ?
Reply text: Not fulfilled
